Values compiled from patent US20240010720A1.

# tested_target: T1, human IGSF11 (VSIG3) on cells (human, UniProt Q5DX21 23-431)
# T1 sequence: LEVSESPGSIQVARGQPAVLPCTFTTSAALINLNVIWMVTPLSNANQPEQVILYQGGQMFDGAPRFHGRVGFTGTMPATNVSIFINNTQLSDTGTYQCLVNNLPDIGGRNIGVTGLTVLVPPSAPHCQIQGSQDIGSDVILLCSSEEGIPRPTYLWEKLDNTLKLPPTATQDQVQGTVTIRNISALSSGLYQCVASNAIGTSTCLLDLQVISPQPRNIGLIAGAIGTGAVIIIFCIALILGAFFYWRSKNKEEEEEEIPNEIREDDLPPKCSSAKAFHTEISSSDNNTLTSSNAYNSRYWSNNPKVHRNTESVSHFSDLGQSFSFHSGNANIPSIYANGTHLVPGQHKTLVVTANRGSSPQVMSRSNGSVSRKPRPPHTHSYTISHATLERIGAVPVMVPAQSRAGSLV
# protocol_text: FACS % positive cells, scFv

binder | binding result
A-028 (scFv format) (scFv, V domains shown, scFv) VH: QVQLVQSGAEVKKPGSSVKVSCKASGGTFSSYAISWVRQAPGQGLEWMGGIIPIFGTANYAQKFQGRVTITADESTSTAYMELSSLRSEDTAVYYCARVGVEYQLLWYFDYWGQGTLVTVSS VL: DIQMTQSPSSLSASVGDRVTLTCRTSQTISNYLNWYQQKPGKAPKLLVYAASNLQSWVPSRFSGSGSGTDFTLTISSLQPEDFATYYCQQSYNASFGGGTKVEFK | binds
A-030 (scFv format) (scFv, V domains shown, scFv) VH: QVQLVQSGAEVKKPGASVKVSCKASGYTFTGYYMHWVRQAPGQGLEWMGWINPNSGNTGYAQKFQGRVTMTRNTSISTAYMELSSLRSEDTAVYYCARGGQQQLVLDDYWGQGTLVTVSS VL: DIQLTQSPSTLSASVGDRVTITCRASQSIGGWLAWYQHKPGKAPKLLIYAASSLQSGVPSRFSGSGSGTDFTLTISSLQPEDFATYYCRQSYSTPPTFGQGTKVEIK | binds
A-017 (scFv format) (scFv, V domains shown, scFv) VH: QVQLVQSGAEVKKPGASVKVSCKASGYTFTGYYMHWVRQAPGQGLEWMGWINPNSGNTGYAQKFQGRVTMTRNTSISTAYMELSSLRSEDTAVYYCARGGQQQLVLDDYWGQGTLVTVSS VL: DIVLTQSPASLSASVGDRITITCQASQDIRHHLNWFQHKPGKAPKLLISDSSNLETGVPSRFSGSGSGTDFSFTISRLQPEDIATYYCQQYDSLPRTFGQGTKLEIK | binds
